Data credit: patent US11390621B2

# ASSAY_PROCEDURE: In vivo pharmacokinetic studies in rats
# Design: species or system SD rats
# CONDITION: SD, rat, plasma, po, 10 mg/kg, rats, PO 10 mg/kg repeat dose, Day 5, individual animals (ID 4, 5, 6)
# Procedure: This example describes pharmacokinetic (PK) studies of ARI-164, ARI-165, ARI-186, ARI-224, and ARI-226 in mice and rats. In the present studies, the test compounds were given to groups of mice and/or rats (N=3 in each group), intravenously (IV) at 2 mg/kg or orally (PO) at 10, 30, or 40 mg/kg. […] Plasma concentrations of the test compounds were determined by HPLC.
OBSERVATION_TYPE: Tmax at 5 days (h)
Numbers only, in h.

Short answer for CC(C)(N)c1csc(C(=O)c2c[nH]c3cc(F)ccc23)n1 [ARI-226] : Tmax at 5 days was 1
